Test system: Escherichia coli TOP10;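 further: peptides expressed intracellularly from a pBAD plasmid library in pooled LB shake-flask culture, induced with 0.3% L-arabinose, DNA abundance read by NGS, three biological replicates, DESeq2 with apeglm shrinkage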
Assay overview: shrunken log2 fold change of peptide-encoding DNA abundance (4.5 h post-induction vs induction); higher = less antimicrobial activity (less host growth inhibition)
Cond: time post-induction: 4.5 h; library: site-saturation at positions 5, 18, 19, 20
Classify by shrunken log2 fold change. Ranges: low range: < -0.1; mid range: ≥ -0.1 and < 0.07; high range: ≥ 0.07

- Primary sequence: "RRIRYRPPRLPRPRPRPWASPRP"
  Qualitative label: "low range"
- Primary sequence: "RRIRKRPPRLPRPRPRPKYTPRP"
  Qualitative label: "low range"
- Primary sequence: "RRIRQRPPRLPRPRPRPVTFPRP"
  Qualitative label: "mid range"
- Primary sequence: "RRIRFRPPRLPRPRPRPEDIPRP"
  Qualitative label: "mid range"
- Primary sequence: "RRIRSRPPRLPRPRPRPWNAPRP"
  Qualitative label: "low range"
- Primary sequence: "RRIRNRPPRLPRPRPRPQMPPRP"
  Qualitative label: "low range"
- Primary sequence: "RRIRLRPPRLPRPRPRPPQGPRP"
  Qualitative label: "high range"
- Primary sequence: "RRIRTRPPRLPRPRPRPCQSPRP"
  Qualitative label: "high range"
- Primary sequence: "RRIRCRPPRLPRPRPRPNLMPRP"
  Qualitative label: "low range"
- Primary sequence: "RRIRERPPRLPRPRPRPRNNPRP"
  Qualitative label: "low range"
- Primary sequence: "RRIRARPPRLPRPRPRPDCKPRP"
  Qualitative label: "low range"
- Primary sequence: "RRIRHRPPRLPRPRPRPESIPRP"
  Qualitative label: "low range"
- Primary sequence: "RRIRMRPPRLPRPRPRPCWLPRP"
  Qualitative label: "mid range"
- Primary sequence: "RRIRPRPPRLPRPRPRPPHRPRP"
  Qualitative label: "high range"
- Primary sequence: "RRIRPRPPRLPRPRPRPHPTPRP"
  Qualitative label: "high range"
- Primary sequence: "RRIRARPPRLPRPRPRPIGRPRP"
  Qualitative label: "mid range"
- Primary sequence: "RRIRIRPPRLPRPRPRPENHPRP"
  Qualitative label: "low range"
- Primary sequence: "RRIRQRPPRLPRPRPRPEIEPRP"
  Qualitative label: "mid range"
- Primary sequence: "RRIRERPPRLPRPRPRPCSPPRP"
  Qualitative label: "low range"
- Primary sequence: "RRIRQRPPRLPRPRPRPMRPPRP"
  Qualitative label: "high range"
- Primary sequence: "RRIRSRPPRLPRPRPRPQLDPRP"
  Qualitative label: "low range"
- Primary sequence: "RRIRIRPPRLPRPRPRPWPLPRP"
  Qualitative label: "low range"
- Primary sequence: "RRIRQRPPRLPRPRPRPIMTPRP"
  Qualitative label: "low range"
- Primary sequence: "RRIRYRPPRLPRPRPRPKANPRP"
  Qualitative label: "low range"
- Primary sequence: "RRIRERPPRLPRPRPRPDPVPRP"
  Qualitative label: "high range"
- Primary sequence: "RRIRNRPPRLPRPRPRPNPNPRP"
  Qualitative label: "mid range"
- Primary sequence: "RRIRKRPPRLPRPRPRPALDPRP"
  Qualitative label: "high range"
- Primary sequence: "RRIRTRPPRLPRPRPRPRESPRP"
  Qualitative label: "high range"
- Primary sequence: "RRIRSRPPRLPRPRPRPYGDPRP"
  Qualitative label: "low range"
- Primary sequence: "RRIRVRPPRLPRPRPRPRVQPRP"
  Qualitative label: "high range"
- Primary sequence: "RRIRHRPPRLPRPRPRPAQRPRP"
  Qualitative label: "high range"
- Primary sequence: "RRIRERPPRLPRPRPRPMVWPRP"
  Qualitative label: "mid range"
- Primary sequence: "RRIRVRPPRLPRPRPRPKGPPRP"
  Qualitative label: "high range"
- Primary sequence: "RRIRLRPPRLPRPRPRPINIPRP"
  Qualitative label: "low range"
- Primary sequence: "RRIRLRPPRLPRPRPRPHTAPRP"
  Qualitative label: "mid range"
- Primary sequence: "RRIRARPPRLPRPRPRPCNWPRP"
  Qualitative label: "mid range"
- Primary sequence: "RRIRLRPPRLPRPRPRPFEYPRP"
  Qualitative label: "mid range"
- Primary sequence: "RRIRYRPPRLPRPRPRPEGWPRP"
  Qualitative label: "high range"
- Primary sequence: "RRIRDRPPRLPRPRPRPFQAPRP"
  Qualitative label: "mid range"
- Primary sequence: "RRIRLRPPRLPRPRPRPSYHPRP"
  Qualitative label: "low range"
- Primary sequence: "RRIRKRPPRLPRPRPRPVQCPRP"
  Qualitative label: "mid range"
- Primary sequence: "RRIRYRPPRLPRPRPRPPRAPRP"
  Qualitative label: "high range"
